src = paper PMC8225628

molecular target: SARS-CoV-2 PL^pro (Severe acute respiratory syndrome coronavirus 2, UniProt P0DTD1); assay: biochemical; conditions: read-out: PL^pro IC50
quantity_kind: IC50

See these solved cases before continuing.
INSERT INTO measurements (compound, reading) VALUES
  ('Cc1cccnc1NS(=O)(=O)c1ccc(C#Cc2ccc(O)c(C(=O)O)c2)cc1 [susalimod]', '> 5 µM'),
  ('O=c1cc(-c2ccc(O)c(-c3c(O)cc(O)c4c(=O)cc(-c5ccc(O)cc5)oc34)c2)oc2cc(O)cc(O)c12 [amentoflavone]', '> 5 µM');

In the following, a different compound is considered.
State measured IC50 of the compound CCOC(=O)C[C@H](NC(=O)[C@H](C)NC(=O)[C@@H](NC(=O)OCc1ccccc1)C(C)C)C(=O)COC(=O)c1c(Cl)cccc1Cl [Compound 4, reference compound] with SARS-CoV-2 PL^pro (Severe acute respiratory syndrome coronavirus 2, UniProt P0DTD1).
> 5 µM
